Origin of values: PubChem BioAssay AID179

# Test system: CEM cells HIV-1 protection, formazan growth assay
# Method description: NCI AIDS Antiviral Assay
# Run parameters: measured here: growth of uninfected CEM cells
pIC50: −log10 of the molar value.
Would you kindly list pIC50 for each of these compounds?

Q: Read off the recorded pIC50 for COc1ccc(-n2nc(C)cc(N)c2=O)cc1
Ans: < 2.97

Q: Assign pIC50 to the following record: CN1C(=O)N(C)C2(CCN(CCCCCCF)CC2)C1=O
Ans: < 3.70

Q: State, in one line, measured pIC50 of COc1ccc2c(c1)[n+](=O)c(C(=O)C/C(=N/OCCCc1ccccc1)C(=O)NC13CC4CC(CC(C4)C1)C3)c(C)n2[O-]
Ans: < 4.40

Q: Supply reported pIC50 belonging to this compound: O=C(Cc1ccccc1)NN1C(=O)/C(=C\c2ccc([N+](=O)[O-])cc2)SC1=Nc1ccccc1
Ans: < 4.25

Q: Please give the documented pIC50 of COc1ccc(C2=Nc3ccccc3SC(C)C2)cc1 (stereo not given)
Ans: < 4.88

Q: Quickly give me recorded pIC50 for CC1(C)CC(=O)CC(=Nc2ccc([N+](=O)[O-])cc2)C1
Ans: < 4.28

Q: Specify measured pIC50 for O=C(O)C1CCCN1C(=O)c1cc(Cl)ccn1 (stereo not given) .
Ans: < 3.70

Q: Return pIC50 for the following compound: CC(CC(N)C(=O)O)C(=O)O (stereo not given)
Ans: < 3.70

Q: Check the records and state pIC50 for NC1=NS(=O)(=O)Nc2nonc21
Ans: < 2.88

Q: Give pIC50 for COC1OC2COC1(OCc1ccccc1)C1OC(C)(C)OC21 (stereo not given)
Ans: < 3.70

----------
# System: CEM cells HIV-1 protection, formazan growth assay
# Method description: NCI AIDS Antiviral Assay
# Run parameters: measured here: growth of uninfected CEM cells
Could you please report measured IC50 for the items listed next?

Q: Look up IC50 of Cc1ccc(S(=O)(=O)NCCSCCSCCNS(=O)(=O)c2ccc(C)cc2)cc1 and report it.
Ans: > 38.9 µM

Q: Determine from records and report IC50 for O=C(O)c1c(CC(Cc2ccccc2)C(=O)O)ccc2c1CCC2 (centres undefined)
Ans: > 200 µM

Q: Specify measured IC50 for CC(C)(C)c1cc(CCC(=O)Nc2ccc(Cl)cc2)nc(NC#N)n1 .
Ans: > 692 µM

Q: Given the molecule CCOC(=O)/C=C\n1c(=O)cc(C)c2ccccc21 , write its reported IC50.
Ans: > 200 µM

Q: Give the reported IC50 for this molecule. CCCCCCCCOC(CO)CO
Ans: > 251 µM

Q: Entry CN(C)CC[PH+](c1ccccc1)c1ccccc1.CN(C)CC[PH+](c1ccccc1)c1ccccc1.[Cl-].[Pd+2] needs its IC50 filled in; supply it.
Ans: > 200 µM

Q: Retrieve IC50 measured for Nc1c2ccccc2nc2ccc(C(=O)Nc3ccc(S(N)(=O)=O)cc3)cc12 and print it.
Ans: > 200 µM

Q: Give IC50 for COc1cc2c(cc1O)C1(Cc3ccc4c(c3C1=O)OCO4)N(C)CC2 (centres undefined)
Ans: > 200 µM

Q: Return the recorded IC50 value; entry: CCCCS(=O)CCC(N)C(=O)O (centres undefined)
Ans: > 100 µM

Q: Please indicate IC50 recorded for O=C1NC2CC=CCC12 (centres undefined)
Ans: > 2040 µM

Q: Report IC50, nothing else, for this molecule: CCCCS(=O)(=O)CCC(N)P(=O)(O)O (centres undefined)
Ans: > 200 µM

Q: Check the records and state IC50 for O=c1c2[nH]cnc2n(-c2ccccc2)c(=S)n1-c1ccccc1
Ans: > 200 µM

Q: Identify measured IC50 corresponding to Cc1cc2[nH]c3c(C#N)c4c(c(=O)n3c2cc1C)CCCC4
Ans: > 200 µM

Q: # return recorded IC50 for input O=C1OC(c2ccc(Cl)c3ccccc23)c2ccccc21 (centres undefined)
Ans: > 17.8 µM

----------
# Tested on: CEM cells HIV-1 protection, formazan growth assay
# Method description: NCI AIDS Antiviral Assay;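 active = compounds giving half or more protection of infected cells from virus-caused growth loss, again on retest; inactive = the rest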
# Procedure: The ability of compounds to protect human CEM cells from HIV-1 infection is measured as a screen for new compounds capable of inhibiting the HIV virus. Five concentrations of drug were tested on uninfected and infected cells and cell growth was measured using a soluble formazan assay. […] Compounds that provided at least 50% protection were retested. Compounds that provided at least 50% protection on retest were listed as moderately active. […]
Your response should consist of one outcome taken from YES = active, NO = inactive

Q: What is the recorded call for this molecule in the test? CCCCC(O)(c1ccccc1)C(O)(c1ccccc1)c1c(F)c(F)c(F)c(F)c1F (stereo not drawn)
Ans: NO

Q: What outcome does the record of this test show for O=C(NC(Nc1ccc(F)c(Cl)c1)(C(F)(F)F)C(F)(F)F)OCc1ccccc1 ?
Ans: NO

Q: Field: outcome | Entry: COc1ccc(CNc2nc3ccc(C(F)(F)F)cc3nc2-c2ccccc2)cc1OC
Ans: NO

Q: Hello, I am checking results. What call was entered for COP(=O)(/C=C/c1cc(C(=O)OCc2ccccc2)n(S(=O)(=O)c2ccccc2)c1)OC ?
Ans: YES

Q: // outcome(item) with item = Cc1ccc2nc(NS(=O)(=O)c3cc(C)c(Cl)cc3S)[nH]c2c1
Ans: NO

Q: Which outcome was entered for the molecule C=CC[N+](CC)(CC)Cc1ccc(C[N+](CC)(CC)CC=C)cc1 in this test?
Ans: NO

Q: // return assay outcome for COC(=O)C(Cc1ccccc1)C(=O)NC(CNC(=O)OCc1ccccc1)C(=O)OCc1ccccc1 (stereo not drawn)
Ans: NO

Q: I would be grateful if you could indicate the recorded call for CCN(CC)c1ccc(N=C2C=CC(=O)c3ncccc32)c(C)c1 .
Ans: NO

----------
Please go through the items and note down their pIC50.
# System: CEM cells HIV-1 protection, formazan growth assay
# Method description: NCI AIDS Antiviral Assay
# Run parameters: measured here: growth of uninfected CEM cells
pIC50: −log10 of the molar value.

Q: Report value only: pIC50, CEM cells HIV-1 protection, formazan growth assay, N#C/C(=C\c1ccccc1)C(=O)c1ccccc1
Ans: < 4.02

Q: Please indicate recorded pIC50 of CSC1=Nc2ccccc2-c2nc(-c3ccccc3)cc(-c3ccccc3)c2C1 measured with CEM cells HIV-1 protection, formazan growth assay.
Ans: < 3.70

Q: Report pIC50 from CEM cells HIV-1 protection, formazan growth assay testing of Cc1c(C(=O)Nc2ccccc2)nnn1-c1ccnc2cc(C(F)(F)F)ccc12
Ans: < 3.70

Q: Under CEM cells HIV-1 protection, formazan growth assay, report pIC50 for O=C(c1cc(Cl)ccc1Cl)N1CCN(C(=O)c2cc(Cl)ccc2Cl)CC1
Ans: < 3.70

Q: # return pIC50 of CC1(C)C(=O)C2(C(=O)O)CCC1C2 (stereo not drawn) (system: CEM cells HIV-1 protection, formazan growth assay)
Ans: < 3.70

Q: Give pIC50 for O=S(=O)([N-]c1nc2ccccc2nc1-[n+]1ccccc1)c1ccccc1 tested on CEM cells HIV-1 protection, formazan growth assay.
Ans: < 4.00

Q: Look up and report pIC50, with CEM cells HIV-1 protection, formazan growth assay as system, for CCN1CCC(O)(/C=C/c2ccc(Cl)cc2)C(C(=O)/C=C/c2ccc(Cl)cc2)C1 (stereo not drawn)
Ans: < 4.67

Q: Fetch value of pIC50 on CEM cells HIV-1 protection, formazan growth assay for C/C=C/C#CC#CC(O)C(/C=C/CCCO)OC1OC(COC2OC(CO)C(O)C(O)C2O)C(O)C(O)C1O (stereo not drawn) .
Ans: < 3.35

Q: Quote pIC50 with test system CEM cells HIV-1 protection, formazan growth assay for Cc1ccc(S(=O)(=O)c2c(O)c3ccccc3n(C)c2=O)cc1
Ans: < 3.70

Q: State recorded pIC50 with CEM cells HIV-1 protection, formazan growth assay, entry O=S(=O)(O)CCN(CCO)CCO , no comment.
Ans: < 3.70

Q: Find pIC50 for Nc1nc(Cl)c(N=Nc2ccc(Cl)cc2)c(NCC2(CO)CCC2)n1 on CEM cells HIV-1 protection, formazan growth assay and write it down.
Ans: < 3.70

Q: Give pIC50 for c1onc2c1CCCC2 (tested in a mixture with another compound) tested on CEM cells HIV-1 protection, formazan growth assay.
Ans: < 2.79

Q: Provide measured pIC50 on CEM cells HIV-1 protection, formazan growth assay for Cc1ccc(C2SCC(=O)N2NC(=O)c2ccncc2)s1 (stereo not drawn) please.
Ans: < 3.70

Q: Send back CEM cells HIV-1 protection, formazan growth assay pIC50 of O=c1c(SCc2ccc(Cl)cc2)c(N2CCCCC2)cnn1-c1ccccc1 only.
Ans: < 4.62

Q: Provide pIC50, tested on CEM cells HIV-1 protection, formazan growth assay, for CCCCCCCCCCCC1=C(O)C(=O)C(CC2=C(O)C(=O)C(CCCCCCCCCCC)=C(O)C2=O)=C(O)C1=O .
Ans: < 4.70

Q: Please report pIC50 with CEM cells HIV-1 protection, formazan growth assay for item O=C1CCCC2=C1C(c1ccncc1)Nc1ccccc1N2 (stereo not drawn) .
Ans: < 3.70

Q: Answer briefly: pIC50 recorded on CEM cells HIV-1 protection, formazan growth assay for C[Si](C)(C)C#CC#C[Si](C)(C)C.[Ni].[Ni].[Ni].[Ni].[c-]1[c-][c-][cH-][c-]1.[c-]1[c-][c-][cH-][c-]1.[c-]1[c-][c-][cH-][c-]1.[c-]1[c-][c-][cH-][c-]1
Ans: < 5.68

Q: Write down the reported pIC50 (system: CEM cells HIV-1 protection, formazan growth assay) of COC(=O)CSc1n[nH]c(-c2ccc(O)c([N+](=O)[O-])c2)n1
Ans: < 3.94
